Target: RIPK2 enzyme (Homo sapiens, UniProt O43353)
Construct: purchased Carna 09-128
Sequence (O43353 1-299 limits assumed): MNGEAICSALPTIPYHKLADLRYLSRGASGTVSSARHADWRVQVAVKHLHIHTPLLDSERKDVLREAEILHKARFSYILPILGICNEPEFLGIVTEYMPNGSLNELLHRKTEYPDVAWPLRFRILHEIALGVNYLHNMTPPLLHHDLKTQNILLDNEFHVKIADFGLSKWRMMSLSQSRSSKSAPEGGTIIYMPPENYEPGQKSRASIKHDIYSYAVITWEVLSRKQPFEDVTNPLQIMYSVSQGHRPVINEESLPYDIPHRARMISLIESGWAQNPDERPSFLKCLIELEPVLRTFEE
Assay: RIPK2 inhibition (ADP-Glo Kinase Assay)
Assay type: biochemical
Details: RIPK2 5 nM, ATP 150 μM, MBP substrate, read-out: RIPK2 IC50
Experimental: RIPK2 inhibition was measured as follows: The V9102 ADP-Glo Kinase Assay (including ultrapure ATP, 10 mM) was purchased from Promega. […] Method: In a 384 well plate, 10 nL of test compound was dispensed using Echo550 and mixed with RIPK2 enzyme (final concentration of 5 nM) in assay buffer for 30 minutes at room temperature. […] The resulting luminescent signal was measured with an Envision reader to determine the amount of ADP produced. […]
IC50: recorded values

Sample answers from the record:
{"COMPOUND": "Cc1cc(CC(=O)Nc2cnn(C(C)(C)C)c2)c(F)cc1Oc1ccnc2ccc(CN3C[C@H]4C[C@@H]3CN4)cc12", "MEAS_VALUE": "< 2.5 nM"}
{"COMPOUND": "Cc1cc(CC(=O)Nc2cnn(C(C)(C)C)c2)ccc1Oc1ccnc2cc(F)c(S(=N)(=O)C3CC3)cc12 (single isomer, unassigned) [Compound 553]", "MEAS_VALUE": "< 2.5 nM"}
{"COMPOUND": "Cc1cc(CC(=O)Nc2cnn(C(C)(C)C)c2)ccc1Oc1ncnc2ccc(OC3CCN(CCO)CC3)cc12", "MEAS_VALUE": "4 nM"}

Alright, here's another compound for you.
Looking up `CCS(=O)(=O)c1ccc2nccc(Oc3cc(F)c(CC(=O)Nc4cnn(C(C)(C)C)c4)cc3C)c2c1` , I found its IC50 recorded as < 2.5 nM
